tested.on: T1, FAM19A5 mutants M1 to M8 (Homo sapiens, UniProt Q7Z5A7, D109K/G107E/I112P/L110T/N113D/R114N)
T1 construct: made in house; host or cells: phage display with helper phage
assay.info: Epitope mapping ELISA with FAM19A5 mutants M1-M8
Format: binding
Experimental: To further characterize the binding epitopes of the anti-FAM19A5 antibodies disclosed in the present disclosure, the amino acid sequences for the different FAM19 family members (i.e., FAM19A1-5) were aligned. […] The amino acid sequences of these regions were replaced with the consensus sequence of the corresponding regions for the FAM19A1-4 proteins. See Table 13 (the mutated amino acid residues are bolded and underlined). The mutant FAM19A5-expressing phages were prepared as follows. […]
recorded.endpoint: binding to FAM19A5 mutant M7

13B4: anti-FAM19A5 antibody; VH SEQ ID NO: 156, VL SEQ ID NO: 167 (antibody, V domains shown, 13B4 VH; 13B4 VL) VH: QVQLQESGPGLVKPSGTLSLNCAVSGGSISSSNWWSWVRQPPGKGLEWIGEIYHGGTTNYNPSLKGRVTMSVDKTKNQFSLRLSSVTAVDTAVYYCARWQLVGGLDVWGQGTTVTVSS VL: SYELTQPLSVSVSPGQTASITCSGDKLGNVYASWYQQKPGQSPTLVIYQDNKRPSGIPERFSGSNSGKTATLTISGTQALDEADYYCQAWDSSTAVFGGGTKLTVL | reduced binding
13F7: anti-FAM19A5 antibody; VH SEQ ID NO: 157, VL SEQ ID NO: 168 (antibody, V domains shown, 13F7 VH; 13F7 VL) VH: QVQLQEWGAGLLKPSETLSLTCAINAESFNGYSWTWIRQTPGKGLEWIGEISHFGSANYNPSLKSRATISADKSKNQFSLKLTSVTAVDTAVYYCARALRGTYSRFYYGMDVWGQGTTVTVSS VL: DIVMTQTPLSLPVAPGEPASISCRSSQSLLHSNGYNYLDWYVQKPGQPPQLLIYLGSNRASGVPDRFSGSGSGTDFTLKISRVEAEDVGVYYCMQARQTPLTFGGGTKVEIK | reduced binding
15A9: anti-FAM19A5 antibody; VH SEQ ID NO: 158, VL SEQ ID NO: 169 (antibody, V domains shown, 15A9 VH; 15A9 VL) VH: QVQLQESGPGLVKPSETLSLTCTVSGGSISSYYWSWIRQPPGKGLEWIGYIYPSGSTNYNPSLKSRVTISVDTSKNQFSLNLKSVTAVDTAVYYCARVNPFGYYYAMDVWGQGTTVTVSS VL: DIQMTQSPSSLSASVGDRITISCRASQSISTSLNWYQQTPGKAPRLLIYGASTLQSGVPSRFSGGGSGTDFSLTITSLQPEDFATYYCQESASIPRTFGQGTKLDIK | reduced binding
